experiment: CCTE_Padilla_ZF_144hpf_TERATOSCORE: (Legacy) CCTE's 144 Hour Post-fertilization zebrafish Assay Teratoscore, Padilla Lab (AID 2283679)
The source made the active and inactive calls. How the source made its calls: active means hit-call score of the fitted dose curve at least 0.9, where 1 is the maximum; inactive means score below 0.9.
Please answer using one outcome listed in active, inactive

**Q:** Each compound tested received a call. Report the one for Cc1cnc(C2=NC(C)(C(C)C)C(=O)N2)c(C(=O)O)c1 (stereo not drawn) .
**A:** inactive

**Q:** Each compound tested received a call. Report the one for "CC(C)NC(=O)N1CC(=O)N(c2cc(Cl)cc(Cl)c2)C1=O" .
**A:** active

**Q:** Each compound tested received a call. Report the one for "CC(C)N1C(=O)N(c2ccccc2)CSC1=NC(C)(C)C" .
**A:** active

**Q:** Each compound tested received a call. Report the one for CC(C)=CC1C(C(=O)OCc2coc(Cc3ccccc3)c2)C1(C)C (stereo not drawn) .
**A:** active

**Q:** Each compound tested received a call. Report the one for "CCSC(=O)N1CCCCCC1" .
**A:** inactive

**Q:** Each compound tested received a call. Report the one for "CCN(CC)c1nc(C)cc(OP(=S)(OC)OC)n1" .
**A:** active

**Q:** Each compound tested received a call. Report the one for "COc1ccc(-c2ccccc2)cc1NNC(=O)OC(C)C" .
**A:** active

**Q:** Each compound tested received a call. Report the one for COCC(C)N(C(=O)CCl)c1c(C)csc1C (stereo not drawn) .
**A:** active

**Q:** Each compound tested received a call. Report the one for "CC(C)N1C(=O)c2ccccc2NS1(=O)=O" .
**A:** inactive

**Q:** Each compound tested received a call. Report the one for "Clc1cccc(C(Cl)(Cl)Cl)n1" .
**A:** inactive

**Q:** Each compound tested received a call. Report the one for "Cc1cc(C)nc(Nc2ccccc2)n1" .
**A:** inactive

**Q:** Each compound tested received a call. Report the one for "O=P(O)(O)CCCl" .
**A:** inactive

**Q:** Each compound tested received a call. Report the one for CC1(C)CCC(=Cc2ccc(Cl)cc2)C1(O)Cn1cncn1 (stereo not drawn) .
**A:** active

----------
read-out: Intercellular Adhesion Molecule 1 (ICAM1), ICAM1 (gene 3383); assay: LTEA_HepaRG_ICAM1: Life Technologies and Expression Analysis (LTEA) Assay for Intercellular Adhesion Molecule 1 (ICAM1) using HepaRG (AID 2283507); conditions: mRNA level, 48 h; actives raise or lower the signal
The source made the active and inactive calls. The calls were made as follows: active = hit-call score of the fitted dose curve at least 0.9, where 1 is the maximum; inactive = score below 0.9.
Please answer using one outcome listed in TRUE = active, FALSE = inactive

**Q:** Each compound tested received a call. Report the one for "O=P(O)(O)CCCl" .
**A:** FALSE

**Q:** Each compound tested received a call. Report the one for CC1(C)CCC(=Cc2ccc(Cl)cc2)C1(O)Cn1cncn1 (stereo not drawn) .
**A:** FALSE

**Q:** Each compound tested received a call. Report the one for "Nc1c(Cl)c(F)nc(OCC(=O)O)c1Cl" .
**A:** FALSE

**Q:** Each compound tested received a call. Report the one for CCC(C)n1c(=O)[nH]c(C)c(Br)c1=O (stereo not drawn) .
**A:** FALSE

**Q:** Each compound tested received a call. Report the one for "COC(=O)c1c(C(F)F)nc(C(F)(F)F)c(C2=NCCS2)c1CC(C)C" .
**A:** FALSE

**Q:** Each compound tested received a call. Report the one for "N#CN=C1SCCN1Cc1ccc(Cl)nc1" .
**A:** FALSE

**Q:** Each compound tested received a call. Report the one for "O=C(O)c1c(Cl)ccc2cc(Cl)cnc12" .
**A:** FALSE

**Q:** Each compound tested received a call. Report the one for "COP(=S)(OC)SCn1nnc2ccccc2c1=O" .
**A:** FALSE

**Q:** Each compound tested received a call. Report the one for "CCOc1nc(F)cc2nc(S(=O)(=O)Nc3c(Cl)cccc3Cl)nn12" .
**A:** FALSE

**Q:** Each compound tested received a call. Report the one for "COC(=O)N(C(=O)N1CO[C@@]2(C(=O)OC)Cc3cc(Cl)ccc3C2=N1)c1ccc(OC(F)(F)F)cc1" .
**A:** FALSE

**Q:** Each compound tested received a call. Report the one for "Cn1c(-c2ccccc2)cc(-c2ccccc2)[n+]1C" .
**A:** FALSE

**Q:** Each compound tested received a call. Report the one for CCCCC(C#N)(Cn1cncn1)c1ccc(Cl)cc1 (stereo not drawn) .
**A:** FALSE

**Q:** Each compound tested received a call. Report the one for "N#Cc1c(Cl)cccc1Cl" .
**A:** FALSE

**Q:** Each compound tested received a call. Report the one for "O=C(Nc1ccccc1-c1ccc(Cl)cc1)c1cccnc1Cl" .
**A:** FALSE

**Q:** Each compound tested received a call. Report the one for "COc1ccc(-c2ccccc2)cc1NNC(=O)OC(C)C" .
**A:** FALSE

**Q:** Each compound tested received a call. Report the one for "CCCCOCN(C(=O)CCl)c1c(CC)cccc1CC" .
**A:** FALSE

**Q:** Each compound tested received a call. Report the one for "OC(c1ccc(Cl)cc1)(c1ccc(Cl)cc1)C(Cl)(Cl)Cl" .
**A:** TRUE

**Q:** Each compound tested received a call. Report the one for "CSC(=O)c1c(C(F)F)nc(C(F)(F)F)c(C(=O)SC)c1CC(C)C" .
**A:** FALSE

**Q:** Each compound tested received a call. Report the one for "CCOP(=S)(OCC)Oc1nc(Cl)n(C(C)C)n1" .
**A:** FALSE

**Q:** Each compound tested received a call. Report the one for CC(C)(C)C(=O)C(Oc1ccc(Cl)cc1)n1cncn1 (stereo not drawn) .
**A:** FALSE

**Q:** Each compound tested received a call. Report the one for "N#Cc1c[nH]cc1-c1cccc2c1OC(F)(F)O2" .
**A:** FALSE

**Q:** Each compound tested received a call. Report the one for "Nc1c(Cl)c(Cl)nc(C(=O)O)c1Cl" .
**A:** FALSE

**Q:** Each compound tested received a call. Report the one for "Clc1cccc(C(Cl)(Cl)Cl)n1" .
**A:** FALSE

**Q:** Each compound tested received a call. Report the one for "CNC(=O)N(C)c1nnc(C(C)(C)C)s1" .
**A:** FALSE

**Q:** Each compound tested received a call. Report the one for "COC(=O)NS(=O)(=O)c1ccc(N)cc1" .
**A:** FALSE

**Q:** Each compound tested received a call. Report the one for "CNC(=O)Oc1cccc2ccccc12" .
**A:** FALSE

**Q:** Each compound tested received a call. Report the one for "CCOc1nc(C(Cl)(Cl)Cl)ns1" .
**A:** TRUE

**Q:** Each compound tested received a call. Report the one for "Cc1nc(N(C)C)nc(OC(=O)N(C)C)c1C" .
**A:** FALSE

**Q:** Each compound tested received a call. Report the one for "COP(=S)(OC)Oc1ccc([N+](=O)[O-])c(C)c1" .
**A:** FALSE

**Q:** Each compound tested received a call. Report the one for "COP(=O)(OC)O/C(C)=C/C(=O)N(C)C" .
**A:** FALSE

**Q:** Each compound tested received a call. Report the one for CC(C)=CC1C(C(=O)OCc2coc(Cc3ccccc3)c2)C1(C)C (stereo not drawn) .
**A:** FALSE

**Q:** Each compound tested received a call. Report the one for "CCOP(=O)(OCC)Oc1nc(Cl)c(Cl)cc1Cl" .
**A:** FALSE

**Q:** Each compound tested received a call. Report the one for "CN=C=S" .
**A:** FALSE

**Q:** Each compound tested received a call. Report the one for "CN/C(=N\[N+](=O)[O-])NCc1cnc(Cl)s1" .
**A:** FALSE

**Q:** Each compound tested received a call. Report the one for "COc1cc(OC)nc(NC(=O)NS(=O)(=O)c2ncccc2OCC(F)(F)F)n1" .
**A:** FALSE

**Q:** Each compound tested received a call. Report the one for O=C1C2CC=CCC2C(=O)N1SC(Cl)(Cl)Cl (stereo not drawn) .
**A:** FALSE

**Q:** Each compound tested received a call. Report the one for "CS(=O)(=O)c1cc(C(F)(F)F)ccc1C(=O)c1cnoc1C1CC1" .
**A:** FALSE

**Q:** Each compound tested received a call. Report the one for "CC(C)N1C(=O)N(c2ccccc2)CSC1=NC(C)(C)C" .
**A:** TRUE

**Q:** Each compound tested received a call. Report the one for "CC(C)Oc1cccc(NC(=O)c2ccccc2C(F)(F)F)c1" .
**A:** FALSE

**Q:** Each compound tested received a call. Report the one for CC1(C)C(C=C(Cl)Cl)C1C(=O)OC(C#N)c1cccc(Oc2ccccc2)c1 (stereo not drawn) .
**A:** FALSE

**Q:** Each compound tested received a call. Report the one for CCNP(=S)(OC)O/C(C)=C/C(=O)OC(C)C (stereo not drawn) .
**A:** FALSE

**Q:** Each compound tested received a call. Report the one for CCCCC(O)(Cn1cncn1)c1ccc(Cl)cc1Cl (stereo not drawn) .
**A:** TRUE

**Q:** Each compound tested received a call. Report the one for CC1(C)C(C(=O)OC(C#N)c2cccc(Oc3ccccc3)c2)C1(C)C (stereo not drawn) .
**A:** FALSE

**Q:** Each compound tested received a call. Report the one for "Cc1ccc(N=CN(C)C=Nc2ccc(C)cc2C)c(C)c1" .
**A:** FALSE

**Q:** Each compound tested received a call. Report the one for "COC(=O)NC(=S)Nc1ccccc1NC(=S)NC(=O)OC" .
**A:** FALSE

**Q:** Each compound tested received a call. Report the one for CCCN(CC)CC1COC2(CCC(C(C)(C)C)CC2)O1 (stereo not drawn) .
**A:** FALSE

**Q:** Each compound tested received a call. Report the one for CCN(CC)C(=O)C(C)Oc1cccc2ccccc12 (stereo not drawn) .
**A:** FALSE

**Q:** Each compound tested received a call. Report the one for COCC(C)N(C(=O)CCl)c1c(C)csc1C (stereo not drawn) .
**A:** FALSE

**Q:** Each compound tested received a call. Report the one for "Cc1cc(C)nc(Nc2ccccc2)n1" .
**A:** FALSE

**Q:** Each compound tested received a call. Report the one for Cc1cnc(C2=NC(C)(C(C)C)C(=O)N2)c(C(=O)O)c1 (stereo not drawn) .
**A:** FALSE

**Q:** Each compound tested received a call. Report the one for "CS(=O)(=O)c1ccc(C(=O)C2C(=O)CCCC2=O)c([N+](=O)[O-])c1" .
**A:** FALSE

**Q:** Each compound tested received a call. Report the one for "CO/N=C(/C1=NOCCO1)c1ccccc1Oc1ncnc(Oc2ccccc2Cl)c1F" .
**A:** TRUE

**Q:** Each compound tested received a call. Report the one for "CC(C)N1C(=O)c2ccccc2NS1(=O)=O" .
**A:** FALSE
